experimentNotes: Metabolic stability in mouse liver microsomes assessed as intrinsic clearance per mg protein at 0.2 uM measured upto 30 mins by LC-MS/MS analysis
Type: ADME, Microsome
protocolConditions: read-out: CLH
Positions of bridges follow the written chain, without caps; N, C: chain ends. Non-standard residues stand in square brackets, D forms with d. Residues, ends and D or L forms follow the SMILES beside them. *: point of attachment. hPhe(3-Cl-4-CF3) = N[C@@H](CCc1ccc(C(F)(F)F)c(Cl)c1)C(=O)O; NMeGly(cPent) = CN[C@H](C(=O)O)C1CCCC1; NMeCha = CN[C@@H](CC1CCCCC1)C(=O)O; NMeD = CN[C@@H](CC(=O)O)C(=O)O; NMeL = CN[C@@H](CC(C)C)C(=O)O; Morpholide = C1CN(*)CCO1; NMeA = CN[C@@H](C)C(=O)O; Piperidide = C1CCN(*)CC1; Ac5c = NC1(C(=O)O)CCCC1; Aze = O=C(O)[C@@H]1CCN1; Sar = CNCC(=O)O
readout: microsomal CLint at 0.2 µM (µL/min/mg)
State just the number; it will be interpreted in µL/min/mg.

>>> recordedvalue("CC[C@H](C)[C@@H]1NC(=O)[C@H](CC(C)C)N(C)C(=O)C[C@@H](C(=O)N2CCCCC2)N(C)C(=O)[C@H](C2CCCC2)N(C)C(=O)C2(CCCC2)NC(=O)[C@@H]2CCCN2C(=O)[C@H](CCc2ccc(C(F)(F)F)c(Cl)c2)NC(=O)CN(C)C(=O)[C@H](CC2CCCCC2)N(C)C(=O)[C@@H]2CCN2C(=O)[C@H](C)N(C)C1=O ([NMeL]I[NMeA][Aze][NMeCha][Sar][hPhe(3-Cl-4-CF3)]P[Ac5c][NMeGly(cPent)][NMeD]-Piperidide; lactam N-11)")
24

Now, please, on to the next compound.
Q: Can you share its microsomal CLint at 0.2 µM? I mean this compound: CC[C@H](C)[C@@H]1NC(=O)[C@H](CC(C)C)N(C)C(=O)C[C@@H](C(=O)N2CCOCC2)N(C)C(=O)[C@H](C2CCCC2)N(C)C(=O)C2(CCCC2)NC(=O)[C@@H]2CCCN2C(=O)[C@H](CCc2ccc(C(F)(F)F)c(Cl)c2)NC(=O)CN(C)C(=O)[C@H](CC2CCCCC2)N(C)C(=O)[C@@H]2CCN2C(=O)[C@H](C)N(C)C1=O ([NMeL]I[NMeA][Aze][NMeCha][Sar][hPhe(3-Cl-4-CF3)]P[Ac5c][NMeGly(cPent)][NMeD]-Morpholide; lactam N-11)
Result: 27

----------
targetOrTestSystem: GTPase KRas (Homo sapiens, UniProt P01116, G12D)
Sequence (P01116 whole entry G12D): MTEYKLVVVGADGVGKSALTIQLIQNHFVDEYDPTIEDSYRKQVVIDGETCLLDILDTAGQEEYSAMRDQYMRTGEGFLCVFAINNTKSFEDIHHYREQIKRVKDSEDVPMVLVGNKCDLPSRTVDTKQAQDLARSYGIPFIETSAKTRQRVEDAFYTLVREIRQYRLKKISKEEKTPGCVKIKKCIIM
experimentNotes: Binding affinity to biotinylated KRAS G12D mutant (unknown origin) incubated for 120 mins by SPR analysis
Positions of bridges follow the written chain, without caps; N, C: chain ends. Non-standard residues stand in square brackets, D forms with d. Residues, ends and D or L forms follow the SMILES beside them. *: point of attachment. hPhe(3-Cl-4-CF3) = N[C@@H](CCc1ccc(C(F)(F)F)c(Cl)c1)C(=O)O; NMeCha = CN[C@@H](CC1CCCCC1)C(=O)O; NMeChg = CN[C@H](C(=O)O)C1CCCCC1; NMeT = CN[C@H](C(=O)O)[C@@H](C)O; NMeD = CN[C@@H](CC(=O)O)C(=O)O; Piperidide = C1CCN(*)CC1; Ac5c = NC1(C(=O)O)CCCC1; Sar = CNCC(=O)O
readout: pKd
pKd here is simply -log10 of the concentration when that concentration is written in mol/L.

Q: What pKd value was documented for this compound, CC[C@H](C)[C@@H]1NC(=O)[C@H]([C@@H](C)O)N(C)C(=O)C[C@@H](C(=O)N2CCCCC2)N(C)C(=O)[C@H](C2CCCCC2)N(C)C(=O)C2(CCCC2)NC(=O)[C@@H]2CCCN2C(=O)[C@H](CCc2ccc(C(F)(F)F)c(Cl)c2)NC(=O)CN(C)C(=O)[C@H](CC2CCCCC2)N(C)C(=O)CN(C)C(=O)CN(C)C1=O ([NMeT]I[Sar][Sar][NMeCha][Sar][hPhe(3-Cl-4-CF3)]P[Ac5c][NMeChg][NMeD]-Piperidide; lactam N-11) ?
Result: 9.64

----------
experimentNotes: Apparent permeability in human Caco-2 cells incubated for 180 mins by LC-MS/MS method
Assay type: ADME, cell-based
Positions of bridges follow the written chain, without caps; N, C: chain ends. Non-standard residues stand in square brackets, D forms with d. Residues, ends and D or L forms follow the SMILES beside them. *: point of attachment. hPhe(3-Cl-4-CF3) = N[C@@H](CCc1ccc(C(F)(F)F)c(Cl)c1)C(=O)O; NMeCha = CN[C@@H](CC1CCCCC1)C(=O)O; NEtLeu = CCN[C@@H](CC(C)C)C(=O)O; NMeChg = CN[C@H](C(=O)O)C1CCCCC1; NMeI = CC[C@H](C)[C@H](NC)C(=O)O; NMeD = CN[C@@H](CC(=O)O)C(=O)O; NMeL = CN[C@@H](CC(C)C)C(=O)O; NMehSer = CN[C@@H](CCO)C(=O)O; NMeA = CN[C@@H](C)C(=O)O; Piperidide = C1CCN(*)CC1; Ac5c = NC1(C(=O)O)CCCC1; Aze = O=C(O)[C@@H]1CCN1; Sar = CNCC(=O)O
Catalogue of compounds with associated Papp at 3 h
Just the number please, in ×10⁻⁶ cm/s, no unit attached.

For orientation, consider the following solved cases.
>>> recordedvalue("CC[C@H](C)[C@@H]1NC(=O)[C@H](CCO)N(C)C(=O)C[C@@H](C(=O)N2CCCCC2)N(C)C(=O)[C@H](C2CCCCC2)N(C)C(=O)C2(CCCC2)NC(=O)[C@@H]2CCCN2C(=O)[C@H](CCc2ccc(C(F)(F)F)c(Cl)c2)NC(=O)CN(C)C(=O)[C@H](CC2CCCCC2)N(C)C(=O)CN(C)C(=O)CN(C)C1=O ([NMehSer]I[Sar][Sar][NMeCha][Sar][hPhe(3-Cl-4-CF3)]P[Ac5c][NMeChg][NMeD]-Piperidide; lactam N-11)")
0.39
>>> recordedvalue("CC[C@H](C)[C@@H]1NC(=O)[C@H](CC(C)C)N(C)C(=O)C[C@@H](C(=O)N2CCCCC2)N(C)C(=O)[C@H]([C@@H](C)CC)N(C)C(=O)C2(CCCC2)NC(=O)[C@@H]2CCCN2C(=O)[C@H](CCc2ccc(C(F)(F)F)c(Cl)c2)NC(=O)CN(C)C(=O)[C@H](CC2CCCCC2)N(C)C(=O)[C@@H]2CCN2C(=O)[C@H](C)N(C)C1=O ([NMeL]I[NMeA][Aze][NMeCha][Sar][hPhe(3-Cl-4-CF3)]P[Ac5c][NMeI][NMeD]-Piperidide; lactam N-11)")
0.75
>>> recordedvalue("CC[C@H](C)[C@@H]1NC(=O)[C@H](CC(C)C)N(CC)C(=O)C[C@@H](C(=O)N2CCCCC2)N(C)C(=O)[C@H](C2CCCCC2)N(C)C(=O)C2(CCCC2)NC(=O)[C@@H]2CCCN2C(=O)[C@H](CCc2ccc(C(F)(F)F)c(Cl)c2)NC(=O)CN(C)C(=O)[C@H](CC2CCCCC2)N(C)C(=O)CN(C)C(=O)CN(C)C1=O ([NEtLeu]I[Sar][Sar][NMeCha][Sar][hPhe(3-Cl-4-CF3)]P[Ac5c][NMeChg][NMeD]-Piperidide; lactam N-11)")
0.29

Now take the following compound into account.
Q: // returns reported Papp at 3 h for input CC[C@H](C)[C@@H]1NC(=O)[C@H](CC(C)C)N(C)C(=O)C[C@@H](C(=O)N2CCCCC2)N(C)C(=O)[C@H](C2CCCCC2)N(C)C(=O)C2(CCCC2)NC(=O)[C@@H]2CCCN2C(=O)[C@H](CCc2ccc(C(F)(F)F)c(Cl)c2)NC(=O)CN(C)C(=O)[C@H](CC2CCCCC2)N(C)C(=O)CN(C)C(=O)CN(C)C1=O ([NMeL]I[Sar][Sar][NMeCha][Sar][hPhe(3-Cl-4-CF3)]P[Ac5c][NMeChg][NMeD]-Piperidide; lactam N-11)
Result: 0.71

----------
experimentNotes: Oral bioavailability in Wistar Hannover rat at 10 mg/kg measured upto 48 hrs by LC-MS/MS analysis
Type: ADME, organism-based
protocolConditions: in vivo
Positions of bridges follow the written chain, without caps; N, C: chain ends. Non-standard residues stand in square brackets, D forms with d. Residues, ends and D or L forms follow the SMILES beside them. *: point of attachment. hPhe(3-Cl-4-CF3) = N[C@@H](CCc1ccc(C(F)(F)F)c(Cl)c1)C(=O)O; NMeGly(cPent) = CN[C@H](C(=O)O)C1CCCC1; NMeCha = CN[C@@H](CC1CCCCC1)C(=O)O; NMeD = CN[C@@H](CC(=O)O)C(=O)O; NMeL = CN[C@@H](CC(C)C)C(=O)O; Morpholide = C1CN(*)CCO1; NMeA = CN[C@@H](C)C(=O)O; Piperidide = C1CCN(*)CC1; Ac5c = NC1(C(=O)O)CCCC1; Aze = O=C(O)[C@@H]1CCN1; Sar = CNCC(=O)O
readout: bioavailability (%)
Write the answer as a number in %, unit excluded.

>>> recordedvalue("CC[C@H](C)[C@@H]1NC(=O)[C@H](CC(C)C)N(C)C(=O)C[C@@H](C(=O)N2CCOCC2)N(C)C(=O)[C@H](C2CCCC2)N(C)C(=O)C2(CCCC2)NC(=O)[C@@H]2CCCN2C(=O)[C@H](CCc2ccc(C(F)(F)F)c(Cl)c2)NC(=O)CN(C)C(=O)[C@H](CC2CCCCC2)N(C)C(=O)[C@@H]2CCN2C(=O)[C@H](C)N(C)C1=O ([NMeL]I[NMeA][Aze][NMeCha][Sar][hPhe(3-Cl-4-CF3)]P[Ac5c][NMeGly(cPent)][NMeD]-Morpholide; lactam N-11)")
21

// below: bioavailability requested for another compound
Q: // bioavailability lookup, key: CC[C@H](C)[C@@H]1NC(=O)[C@H](CC(C)C)N(C)C(=O)C[C@@H](C(=O)N2CCCCC2)N(C)C(=O)[C@H](C2CCCC2)N(C)C(=O)C2(CCCC2)NC(=O)[C@@H]2CCCN2C(=O)[C@H](CCc2ccc(C(F)(F)F)c(Cl)c2)NC(=O)CN(C)C(=O)[C@H](CC2CCCCC2)N(C)C(=O)[C@@H]2CCN2C(=O)[C@H](C)N(C)C1=O ([NMeL]I[NMeA][Aze][NMeCha][Sar][hPhe(3-Cl-4-CF3)]P[Ac5c][NMeGly(cPent)][NMeD]-Piperidide; lactam N-11)
Result: 5.7

These entries and their values trace back to ChEMBL document CHEMBL5550184.
